Listing of recorded Activity by entry.
# subject_of_test: Acetylcholinesterase (Mus musculus) (UniProt P21836)
# Sequence (whole entry): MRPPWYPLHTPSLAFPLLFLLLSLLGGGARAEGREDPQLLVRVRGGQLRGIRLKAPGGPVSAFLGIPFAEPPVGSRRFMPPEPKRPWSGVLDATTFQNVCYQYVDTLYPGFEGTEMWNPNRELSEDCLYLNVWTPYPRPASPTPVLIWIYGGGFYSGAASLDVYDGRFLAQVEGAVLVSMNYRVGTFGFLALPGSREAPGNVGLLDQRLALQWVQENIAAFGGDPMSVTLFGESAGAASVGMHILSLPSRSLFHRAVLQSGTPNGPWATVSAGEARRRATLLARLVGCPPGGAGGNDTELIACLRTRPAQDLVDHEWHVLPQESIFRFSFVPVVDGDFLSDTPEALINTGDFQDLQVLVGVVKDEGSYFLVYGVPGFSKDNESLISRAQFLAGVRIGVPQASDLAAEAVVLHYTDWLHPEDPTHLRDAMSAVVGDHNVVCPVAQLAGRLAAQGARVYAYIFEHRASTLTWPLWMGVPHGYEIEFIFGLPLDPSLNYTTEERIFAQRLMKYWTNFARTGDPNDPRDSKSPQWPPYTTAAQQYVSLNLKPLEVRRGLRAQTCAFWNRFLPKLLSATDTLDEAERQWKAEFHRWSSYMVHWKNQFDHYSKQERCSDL
# method_notes: Inhibition of AChE in Mus musculus (mouse) brain homogenate assessed as residual activity measuring acetylthiocholine iodide hydrolysis per mg protein at 10 uM after 5 min by Ellman method
# Format: tissue-based
Kindly answer with a numeric value in nmol/min, unit omitted.

Here is how some molecules turned out for Activity.
CN1CCN(C(=O)COc2cccc3ccccc23)CC1; 15.4
O=C(COc1cccc2ccccc12)N1CCCCC1; 83.5
CCN(CC)CCOc1cccc2c(NC(=O)C(C)C)cccc12; 56
Nc1cccc2c(OCC(=O)N3CCCC3)cccc12; 78.5
CN(C)C(=O)COc1cccc2ccccc12; 76.2

Let us examine a further case.
Input line: Request - read-out Activity | tested on Acetylcholinesterase (Mus musculus) (UniProt P21836) | molecule O=C(COc1cccc2ccccc12)N1CCCC1
Output line: 29.7

###

# Test system: Mus musculus
# method_notes: Antiamnesic activity in Mus musculus (mouse) assessed as retention of memory at 1 mg/kg, ip measured after 24 hr by elevated plus maze test
# Assay type: functional
# measurement_context: route intraperitoneal
quantity: Activity (%)
Kindly answer with a numeric value in %, unit omitted.

Input line: Param item = Nc1cccc2c(OCC(=O)N3CCOCC3)cccc12 ; retrieve measured Activity.
Output line: 43.26

Input line: Param item = NC(=O)CN1CCCC1=O ; retrieve measured Activity.
Output line: 32.47

Input line: Param item = CN(C)C(=O)COc1cccc2ccccc12 ; retrieve measured Activity.
Output line: 52.92

Input line: Param item = O=C(COc1cccc2ccccc12)N1CCCCC1 ; retrieve measured Activity.
Output line: 63

Input line: Param item = Nc1cccc2c(OCC(=O)N3CCCC3)cccc12 ; retrieve measured Activity.
Output line: 69.11

Input line: Param item = O=C(COc1cccc2ccccc12)N1CCCC1 ; retrieve measured Activity.
Output line: 51.59

Input line: Param item = CCN(CC)CCOc1cccc2c(NC(=O)C(C)C)cccc12 ; retrieve measured Activity.
Output line: 19.28

Input line: Param item = O=C(COc1cccc2ccccc12)N1CCOCC1 ; retrieve measured Activity.
Output line: 62.69

Input line: Param item = CN1CCN(C(=O)COc2cccc3ccccc23)CC1 ; retrieve measured Activity.
Output line: 73.76

Input line: Param item = CC(C)C(=O)Nc1cccc2c(OCCN3CCOCC3)cccc12 ; retrieve measured Activity.
Output line: 22.23

###

# subject_of_test: Acetylcholinesterase (Mus musculus) (UniProt P21836)
# method_notes: Inhibition of AChE in Mus musculus (mouse) brain homogenate at 10 uM after 5 min by Ellman method relative to control
# Format: tissue-based
Note that class boundaries on Imax are class 0 = under 30%, class 1 = from 30% up to 70%, class 2 = 70% and over

O=C(COc1cccc2ccccc12)N1CCCC1; class 2

From here, focus on the item given below.
Input line: Hey, which category is O=C(COc1cccc2ccccc12)N1CCOCC1 in, do you know?
Output line: class 2

###

# Test system: Mus musculus
# method_notes: Antiamnesic activity in Mus musculus (mouse) assessed as retention of memory at 3 mg/kg, ip measured after 24 hr by elevated plus maze test
# Format: functional
# measurement_context: route intraperitoneal
Please use true (1) whenever Activity is not below 80%, and false (0) whenever it is.

CC(C)C(=O)Nc1cccc2c(OCCN3CCOCC3)cccc12; false (0)

Input line: Record CN1CCN(C(=O)COc2cccc3ccccc23)CC1 ; criterion: Activity no lower than 80%. Met?
Output line: true (1)

Input line: Record O=C(COc1cccc2ccccc12)N1CCCC1 ; criterion: Activity no lower than 80%. Met?
Output line: false (0)

Input line: Record O=C(COc1cccc2ccccc12)N1CCCCC1 ; criterion: Activity no lower than 80%. Met?
Output line: false (0)

Input line: Record Nc1cccc2c(OCC(=O)N3CCCC3)cccc12 ; criterion: Activity no lower than 80%. Met?
Output line: false (0)

###

Listing of recorded Activity by entry.
# Tested on: Mus musculus
# method_notes: Antiamnesic activity in Mus musculus (mouse) assessed as retention of memory at 3 mg/kg, ip measured after 24 hr by elevated plus maze test
# Type: functional
# measurement_context: route intraperitoneal
Kindly answer with a numeric value in %, unit omitted.

Input line: Param item = Nc1cccc2c(OCC(=O)N3CCOCC3)cccc12 ; retrieve measured Activity.
Output line: 75.35

Input line: Param item = NC(=O)CN1CCCC1=O ; retrieve measured Activity.
Output line: 46.88

Input line: Param item = CCN(CC)CCOc1cccc2c(NC(=O)C(C)C)cccc12 ; retrieve measured Activity.
Output line: 28.1

###

Listing of recorded Activity by entry.
# subject_of_test: Acetylcholinesterase (Mus musculus)
# method_notes: Inhibition of AChE in Mus musculus (mouse) brain homogenate assessed as residual activity measuring acetylthiocholine iodide hydrolysis per mg protein at 10 uM after 5 min by Ellman method
# Format: tissue-based
Kindly answer with a numeric value in nmol/min, unit omitted.

O=C(COc1cccc2ccccc12)N1CCOCC1; 25.8
CC(C)C(=O)Nc1cccc2c(OCCN3CCOCC3)cccc12; 59

Input line: Request - read-out Activity | tested on Acetylcholinesterase (Mus musculus) | compound Nc1cccc2c(OCC(=O)N3CCOCC3)cccc12
Output line: 55.9

###

# subject_of_test: Acetylcholinesterase (Mus musculus) (UniProt P21836)
# method_notes: Inhibition of AChE in Mus musculus (mouse) brain homogenate at 10 uM after 5 min by Ellman method relative to control
# Type: tissue-based
// classify: if (Imax < 30%) Fulfilled else Not fulfilled

# count of solved cases: 6
Nc1cccc2c(OCC(=O)N3CCCC3)cccc12; Not fulfilled
O=C(COc1cccc2ccccc12)N1CCCCC1; Fulfilled
Nc1cccc2c(OCC(=O)N3CCOCC3)cccc12; Not fulfilled
CCN(CC)CCOc1cccc2c(NC(=O)C(C)C)cccc12; Fulfilled
CC(C)C(=O)Nc1cccc2c(OCCN3CCOCC3)cccc12; Fulfilled
CN1CCN(C(=O)COc2cccc3ccccc23)CC1; Not fulfilled

Input line: Please determine if CN(C)C(=O)COc1cccc2ccccc12 is below 30% in terms of Imax.
Output line: Not fulfilled
